Test system: SNB-19 CNS
experiment-description: NCI tumour cell line growth inhibition, 48 h
Measured TGI values are reported for all entries that follow.

In the examples that follow, each entry is paired with its recorded TGI.
compound	TGI
Cc1ncc(COP(=O)(O)O)c(/C=C2\SC(=S)NC2=O)c1O	> 100 µM
COc1cc(OC)cc(C2C3=C(COC3=O)Nc3cc(OC)ccc32)c1 (stereo not given)	> 100 µM
Cc1nc(-c2cc3ccccc3oc2=O)cs1	> 100 µM
CC(=O)N1CCN(CCNC(=O)n2cc(-c3ccncc3)c(-c3cc(O)cc(Cl)c3)n2)CC1	78.6 µM
O=C(Nc1nn[nH]n1)c1nc(-c2ccccc2)cc(=O)[nH]1	> 100 µM
CNCCCNc1nc2ccccc2c2c(=O)c3cc(OC)ccc3sc12	3.18 µM

Param item = CC(C)OC(=S)Nc1ccc(Cl)c(/C=N/OC(C)(C)C)c1 ; retrieve measured TGI.
44.2 µM

# input compound: O=C1NC(N2CCOCC2)=N/C1=C\c1ccc(O)cc1 ; wanted: its TGI
> 100 µM

Using the record for CN1Cc2ccccc2/C=C\c2ccccc21 , report its TGI.
> 100 µM

# query: TGI of entry Cc1nc(Nc2ccccc2Cl)sc1C(=O)CC(=O)C(N)=O
> 100 µM

This collection of values is drawn from PubChem BioAssay (NCI).
